Where do the numbers come from? From paper PMC8648464.

Tgt: E. coli single-stranded DNA binding protein (SSB) (Escherichia coli, UniProt P0AGE0 1-178)
Sequence (P0AGE0 whole entry): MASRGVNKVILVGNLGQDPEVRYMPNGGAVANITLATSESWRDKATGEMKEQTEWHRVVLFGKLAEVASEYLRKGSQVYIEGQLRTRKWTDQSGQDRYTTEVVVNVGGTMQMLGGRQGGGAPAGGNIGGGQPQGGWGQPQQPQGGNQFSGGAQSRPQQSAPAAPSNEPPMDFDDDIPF
Test method notes: competition
pKd: −log10 of the molar value.
Quantity: pKd

>>> reported_value("70nt poly(dT) (ssDNA) DNA: TTTTTTTTTTTTTTTTTTTTTTTTTTTTTTTTTTTTTTTTTTTTTTTTTTTTTTTTTTTTTTTTTTTTTT")
7.66
